Recorded Kd, one value per entry.
# subject_of_test: T1, cynomolgus monkey PCSK9 (cynomolgus monkey, UniProt A8T662 31-692 (Macaca nemestrina entry), limits assumed)
# T1 construct: also called Cyno PCSK9; cynoPCSK9
# assay_procedure: ProteOn SPR, captured antibody, pH 7.6;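 also: antibodies captured via anti-human Fc on a GLC sensor chip, PCSK9 binding sensorgrams fitted to a 1:1 Langmuir model giving on and off rates, with KD derived from them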
API: value field is a number in nM; no unit string.

binder: CL-274711 (antibody, V domains shown, Human antibody with a kappa light chain, generated by immunising a PCSK9 knockout mouse) VH: QVQLQESGPGLVKPSQTLSLTCTVSGGSISSGGYYWSWIRQHPGKGLEWIGHIFYSGSTYYNPSLKSRVTISVDTSKNQFSLKLNSVTAADTAVYYCASEGGYYDIPDVWGQGTTVTVSS VL: EIVLTQSPATLSLSPGERATLSCRASQSVSNYLAWYQQKPGQAPRLLISDASNRATGIPARFSGSGSGTDFTLTISSLEPEDFAIYYCQQRSNWPLTFGGGTKVEIK
Kd (nM): 0.145

Specify Kd for CL-148219 QLT mutant (antibody, V domains shown) VH: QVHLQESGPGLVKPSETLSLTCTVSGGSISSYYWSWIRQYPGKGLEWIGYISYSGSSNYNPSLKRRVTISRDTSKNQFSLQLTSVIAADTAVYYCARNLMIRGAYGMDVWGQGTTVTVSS VL: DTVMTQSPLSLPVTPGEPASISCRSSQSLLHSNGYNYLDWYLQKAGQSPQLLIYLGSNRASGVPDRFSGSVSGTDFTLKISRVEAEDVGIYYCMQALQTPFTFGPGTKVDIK and stop.
0.352

Attribution: patent US20220049017A1
